Kindly state T/C for each of the entries shown.
Tested on: L1210 leukemia ip in BDF1 mice, survival T/C
Assay: NCI In Vivo Anticancer Drug Screen. Data for tumor model L1210 Leukemia (intraperitoneal) in B6D2F1 (BDF1) mice
Settings: endpoint: mean survival time; dose: 100.0 mg/kg/injection; schedule: Q01DX009 (ip); vehicle: saline; higher = longer survival
Method: The antitumor activity of compounds was measured in mice bearing transplantable tumors. Survival or tumor size were measured and the results are expressed as the measurement made in the treated group (T) divided by the measurement made in the vehicle treated control group (C). The tumor model used in this assay is L1210 Leukemia (intraperitoneal) in B6D2F1 (BDF1) mice
Toxic doses and inconclusive results are not listed.

molecule	assay target	recorded result
O=S1(=O)CCC(O)C1 (stereo not given)	L1210 leukemia ip in BDF1 mice, survival T/C	93 % of control
CC(C)(CCCl)NCc1ccccc1	L1210 leukemia ip in BDF1 mice, survival T/C	88 % of control
CCN(CC)CC(=O)NCC(C)(CCN1CCOCC1)c1cccc2ccccc12 (stereo not given)	L1210 leukemia ip in BDF1 mice, survival T/C	105 % of control
CC(=O)OCC[N+](C)(C)CCCCC[N+](C)(C)CCOC(C)=O	L1210 leukemia ip in BDF1 mice, survival T/C	100 % of control
COC(=O)C1C=C2c3cccc4[nH]cc(c34)CC2N(C)C1 (stereo not given)	L1210 leukemia ip in BDF1 mice, survival T/C	105 % of control
CC1CN1N (stereo not given)	L1210 leukemia ip in BDF1 mice, survival T/C	98 % of control

Dear reader, for each entry below, please note its T/C.
1. CC(=O)NC(C)C(C)(C)O (stereo not given)
2. C/C=C/C(=O)OC

101 % of control
101 % of control

Hi team, please reply with T/C for each item in this list.
1. COC(=O)C(Br)C(C)OC (stereo not given)
2. Cc1[nH]c(=S)sc1C
3. N#CCCN1CCOCC1
4. Nc1n[nH]c(N)n1.[Co]

1: 96 % of control; 2: 97 % of control; 3: 93 % of control; 4: 100 % of control

// batch mode: one T/C value per listed entry
1. CC(C)n1cc2c(N)ncnc2n1
2. CCCNCC1OC(OC)C2OC(C)(C)OC12 (stereo not given)

1: 104 % of control; 2: 88 % of control

Each of the following entries comes with a recorded value; kindly state T/C for each.
1. CC1CN1P1(N2CC2C)=NP(N2CC2C)(N2CC2C)=NP(N2CC2C)(N2CC2C)=N1 (stereo not given)
2. CCOC(=O)CNCc1cccnc1
3. COC(=O)C(N)CCl (stereo not given)

["106 % of control", "97 % of control", "93 % of control"]
